# System: LCLC-103H (Non-Small Cell Lung Carcinoma)
# assay: combination Emax (second highest fraction inhibited in the dose matrix, 72 h); higher = more inhibition; extreme values may be limits of the assay
measurement.type: combination Emax

Given the entry CC1(C)CCC(CN2CCN(c3ccc(C(=O)NS(=O)(=O)c4ccc(NCC5CCOCC5)c([N+](=O)[O-])c4)c(Oc4cnc5[nH]ccc5c4)c3)CC2)=C(c2ccc(Cl)cc2)C1 [Venetoclax] + Cc1cc2ncnn2cc1Nc1ncc2c(n1)n(C1CCOCC1)c(=O)n2C [AZD7648] (first compound max 1 µM, 7x7, partner max 10 µM) , report its measured combination Emax.
0.282

Lookup COc1nnc2ccc(N3CCC(c4ccc(OCCN5CCN(C)C(=O)[C@H]5C)cc4)CC3)nn12 [AZD5153] + CCN(CCO)CCCOc1ccc2c(Nc3cc(CC(=O)Nc4cccc(F)c4)[nH]n3)ncnc2c1 [AZD2811] (first compound max 1 µM, 7x7, partner max 1 µM)
0.511

Another molecule to look at: CN(CCO)CC[C@H](CSc1ccccc1)Nc1ccc(S(=O)(=O)NC(=O)c2ccc(N3CCC([C@@H](O)c4ccccc4-c4ccc(Cl)cc4)CC3)cc2)cc1S(=O)(=O)C(F)(F)F [AZD4320] + C[C@@H]1COCCN1C2=NC(=NC(=C2)C3(CC3)[S@](=N)(=O)C)C4=C5C=CNC5=NC=C4 [AZD6738] (first compound max 1 µM, 7x7, partner max 10 µM)
0.546

----------
# Test system: COR-L88 (Small Cell Lung Carcinoma)
# assay: combination Emax (second highest fraction inhibited in the dose matrix, 72 h); higher = more inhibition; extreme values may be limits of the assay
measurement.type: combination Emax
Format: numeric value only, no unit, no commentary.

Recorded results for 2 compounds are shown here.
compound | numeric.value
C=CCn1c(=O)c2cnc(Nc3ccc(N4CCN(C)CC4)cc3)nc2n1-c1cccc(C(C)(C)O)n1 [AZD1775] + C1CN(CCC1(C(=O)N[C@@H](CCO)C2=CC=C(C=C2)Cl)N)C3=NC=NC4=C3C=CN4 [Capivasertib] (first compound max 3 µM, partner max 3 µM) | 0.703
CC1(C)CCC(CN2CCN(c3ccc(C(=O)NS(=O)(=O)c4ccc(NCC5CCOCC5)c([N+](=O)[O-])c4)c(Oc4cnc5[nH]ccc5c4)c3)CC2)=C(c2ccc(Cl)cc2)C1 [Venetoclax] + CN(C)CCCOc1ccc(-c2ccc3ncc4c(c3c2)n(C2CCOCC2)c(=O)n4C)cn1 [AZD0156] (first compound max 1 µM, 7x7, partner max 1 µM) | 0.525

Moving on to the next compound.
I would be grateful if you could share the reported combination Emax for CCN(CCO)CCCOc1ccc2c(Nc3cc(CC(=O)Nc4cccc(F)c4)[nH]n3)ncnc2c1 [AZD2811] + C=CCn1c(=O)c2cnc(Nc3ccc(N4CCN(C)CC4)cc3)nc2n1-c1cccc(C(C)(C)O)n1 [AZD1775] (first compound max 1 µM, partner max 1 µM) .
0.64

----------
Measured combination Emax, listed per entry.
# Test system: LS-1034 (Colorectal Carcinoma)
# assay: combination Emax (second highest fraction inhibited in the dose matrix, 72 h); higher = more inhibition; extreme values may be limits of the assay
# respond with the number and nothing more

compound | experimental.target | measurement.type | numeric.value
CN(CCO)CC[C@H](CSc1ccccc1)Nc1ccc(S(=O)(=O)NC(=O)c2ccc(N3CCC([C@@H](O)c4ccccc4-c4ccc(Cl)cc4)CC3)cc2)cc1S(=O)(=O)C(F)(F)F [AZD4320] + Cn1cnc2c(F)c(Nc3ccc(Br)cc3Cl)c(C(=O)NOCCO)cc21 [Selumetinib] (first compound max 1 µM, 7x7, partner max 3 µM) | LS-1034 (Colorectal Carcinoma) | combination Emax | 0.594

I am curious: what combination Emax value has been reported for Cc1nc(-c2cn3c(n2)-c2ccc(-c4cnn(C(C)(C)C(N)=O)c4)cc2OCC3)n(C(C)C)n1 [Taselisib] + O=C(Nc1ccc2[nH]nc(-c3ccncc3)c2c1)[C@@H]1CCN(CC(=O)N2CCN(c3ccc(-c4ncccn4)cc3)CC2)C1 [SCH772984] (first compound max 10 µM, 7x7, partner max 5 µM) ?
0.72

----------
Listed next: entries and their corresponding Bliss excess.
# System: P32-ISH (Burkitt's Lymphoma)
# assay: Bliss excess, mean over the matrix (fraction); higher = more synergy

Below are worked cases with known answers.
molecule | Bliss excess
COc1nnc2ccc(N3CCC(c4ccc(OCCN5CCN(C)C(=O)[C@H]5C)cc4)CC3)nn12 [AZD5153] + CCN(CCO)CCCOc1ccc2c(Nc3cc(CC(=O)Nc4cccc(F)c4)[nH]n3)ncnc2c1 [AZD2811] (first compound max 1 µM, 7x7, partner max 1 µM) | -0.0959
C[C@@H](c1ccc2nccn2c1)n1nnc2ncc(-c3cnn(C)c3)nc21 [Savolitinib] + CC1(C)CCC(CN2CCN(c3ccc(C(=O)NS(=O)(=O)c4ccc(NCC5CCOCC5)c([N+](=O)[O-])c4)c(Oc4cnc5[nH]ccc5c4)c3)CC2)=C(c2ccc(Cl)cc2)C1 [Venetoclax] (first compound max 1 µM, 7x7, partner max 1 µM) | -0.0188

We next turn to a different molecule, shown below.
What does the data say about its Bliss excess? Entry: CC1(C)CCC(CN2CCN(c3ccc(C(=O)NS(=O)(=O)c4ccc(NCC5CCOCC5)c([N+](=O)[O-])c4)c(Oc4cnc5[nH]ccc5c4)c3)CC2)=C(c2ccc(Cl)cc2)C1 [Venetoclax] + C[C@@H](Nc1cc(F)cc(F)c1)c1cc(C(=O)N(C)C)cc2c(=O)cc(N3CCOCC3)oc12 [AZD8186] (first compound max 1 µM, 7x7, partner max 3 µM)
0.0385

----------
# System: T47D (Breast Carcinoma)
# assay: combination Emax (second highest fraction inhibited in the dose matrix, 72 h); higher = more inhibition; extreme values may be limits of the assay
measurement.type: combination Emax
Give only the figure.

Solved entries (count: 2):
compound | experimental.target | combination Emax
CN(CCO)CC[C@H](CSc1ccccc1)Nc1ccc(S(=O)(=O)NC(=O)c2ccc(N3CCC([C@@H](O)c4ccccc4-c4ccc(Cl)cc4)CC3)cc2)cc1S(=O)(=O)C(F)(F)F [AZD4320] + Cn1cnc2c(F)c(Nc3ccc(Br)cc3Cl)c(C(=O)NOCCO)cc21 [Selumetinib] (first compound max 1 µM, 7x7, partner max 3 µM) | T47D (Breast Carcinoma) | 0.314
C=CCn1c(=O)c2cnc(Nc3ccc(N4CCN(C)CC4)cc3)nc2n1-c1cccc(C(C)(C)O)n1 [AZD1775] + C[C@@H]1COCCN1C2=NC(=NC(=C2)C3(CC3)[S@](=N)(=O)C)C4=C5C=CNC5=NC=C4 [AZD6738] (first compound max 1 µM, partner max 10 µM) | T47D (Breast Carcinoma) | 0.412

Proceeding to the next compound to report its combination Emax.
Sample COc1cccc(OCCCN)c1-c1cc(Nc2cnc(C#N)cn2)n[nH]1 [Prexasertib] + O=C(c1cc(Cc2n[nH]c(=O)c3ccccc23)ccc1F)N1CCN(C(=O)C2CC2)CC1 [Olaparib] (first compound max 1 µM, 7x7, partner max 10 µM) — what was its combination Emax?
0.479

----------
# Test system: CPC-N (Small Cell Lung Carcinoma)
# assay: combination Emax (second highest fraction inhibited in the dose matrix, 72 h); higher = more inhibition; extreme values may be limits of the assay
measurement.type: combination Emax

molecule | experimental.target | combination Emax
CC1(C)CCC(CN2CCN(c3ccc(C(=O)NS(=O)(=O)c4ccc(NCC5CCOCC5)c([N+](=O)[O-])c4)c(Oc4cnc5[nH]ccc5c4)c3)CC2)=C(c2ccc(Cl)cc2)C1 [Venetoclax] + C[C@@H](Nc1cc(F)cc(F)c1)c1cc(C(=O)N(C)C)cc2c(=O)cc(N3CCOCC3)oc12 [AZD8186] (first compound max 1 µM, 7x7, partner max 3 µM) | CPC-N (Small Cell Lung Carcinoma) | 0.835
COc1nnc2ccc(N3CCC(c4ccc(OCCN5CCN(C)C(=O)[C@H]5C)cc4)CC3)nn12 [AZD5153] + Cn1cnc2c(F)c(Nc3ccc(Br)cc3Cl)c(C(=O)NOCCO)cc21 [Selumetinib] (first compound max 1 µM, 7x7, partner max 10 µM) | CPC-N (Small Cell Lung Carcinoma) | 0.451
COc1nnc2ccc(N3CCC(c4ccc(OCCN5CCN(C)C(=O)[C@H]5C)cc4)CC3)nn12 [AZD5153] + CCN(CCO)CCCOc1ccc2c(Nc3cc(CC(=O)Nc4cccc(F)c4)[nH]n3)ncnc2c1 [AZD2811] (first compound max 1 µM, 7x7, partner max 1 µM) | CPC-N (Small Cell Lung Carcinoma) | 0.697

// next item, combination Emax requested
Give the reported combination Emax for Cn1cnc2c(F)c(Nc3ccc(Br)cc3Cl)c(C(=O)NOCCO)cc21 [Selumetinib] + C=CCn1c(=O)c2cnc(Nc3ccc(N4CCN(C)CC4)cc3)nc2n1-c1cccc(C(C)(C)O)n1 [AZD1775] (first compound max 10 µM, partner max 1 µM) (system: CPC-N (Small Cell Lung Carcinoma)).
0.748

----------
# Test system: OAW-28 (Ovarian Carcinoma)
# assay: Bliss excess, mean over the matrix (fraction); higher = more synergy
Label YES when Bliss excess is at or above -0.01; anything below gets NO.

compound | experimental.target | group
CN(CCO)CC[C@H](CSc1ccccc1)Nc1ccc(S(=O)(=O)NC(=O)c2ccc(N3CCC([C@@H](O)c4ccccc4-c4ccc(Cl)cc4)CC3)cc2)cc1S(=O)(=O)C(F)(F)F [AZD4320] + C[C@@H](Nc1cc(F)cc(F)c1)c1cc(C(=O)N(C)C)cc2c(=O)cc(N3CCOCC3)oc12 [AZD8186] (first compound max 1 µM, 7x7, partner max 3 µM) | OAW-28 (Ovarian Carcinoma) | YES

Check this compound for Bliss excess at or above -0.01: CC(=O)c1c(C)c2cnc(Nc3ccc(N4CCNCC4)cn3)nc2n(C2CCCC2)c1=O [Palbociclib] + Cn1cnc2c(F)c(Nc3ccc(Br)cc3Cl)c(C(=O)NOCCO)cc21 [Selumetinib] (first compound max 10 µM, 7x7, partner max 10 µM)
NO

Also CCc1c2c(nc3ccc(O)cc13)-c1cc3c(c(=O)n1C2)COC(=O)[C@]3(O)CC [SN-38] + CN(C)CCCOc1ccc(-c2ccc3ncc4c(c3c2)n(C2CCOCC2)c(=O)n4C)cn1 [AZD0156] (first compound max 0.3 µM, 7x7, partner max 1 µM) , if possible.
YES

Also, CN(C)CCCOc1ccc(-c2ccc3ncc4c(c3c2)n(C2CCOCC2)c(=O)n4C)cn1 [AZD0156] + C[C@@H]1COCCN1C2=NC(=NC(=C2)C3(CC3)[S@](=N)(=O)C)C4=C5C=CNC5=NC=C4 [AZD6738] (first compound max 1 µM, 7x7, partner max 10 µM) please.
NO

Ok, now COc1nnc2ccc(N3CCC(c4ccc(OCCN5CCN(C)C(=O)[C@H]5C)cc4)CC3)nn12 [AZD5153] + Cn1cnc2c(F)c(Nc3ccc(Br)cc3Cl)c(C(=O)NOCCO)cc21 [Selumetinib] (first compound max 1 µM, 7x7, partner max 10 µM)
YES

Then COc1cccc(OCCCN)c1-c1cc(Nc2cnc(C#N)cn2)n[nH]1 [Prexasertib] + C[C@@H]1COCCN1C2=NC(=NC(=C2)C3(CC3)[S@](=N)(=O)C)C4=C5C=CNC5=NC=C4 [AZD6738] (first compound max 1 µM, 7x7, partner max 10 µM) ?
YES

Do the same for Cc1cc2ncnn2cc1Nc1ncc2c(n1)n(C1CCOCC1)c(=O)n2C [AZD7648] + O=C(c1cc(Cc2n[nH]c(=O)c3ccccc23)ccc1F)N1CCN(C(=O)C2CC2)CC1 [Olaparib] (first compound max 10 µM, 7x7, partner max 10 µM) please
NO

Entry to check: CC1(C)CCC(CN2CCN(c3ccc(C(=O)NS(=O)(=O)c4ccc(NCC5CCOCC5)c([N+](=O)[O-])c4)c(Oc4cnc5[nH]ccc5c4)c3)CC2)=C(c2ccc(Cl)cc2)C1 [Venetoclax] + C1CN(CCC1(C(=O)N[C@@H](CCO)C2=CC=C(C=C2)Cl)N)C3=NC=NC4=C3C=CN4 [Capivasertib] (first compound max 1 µM, 7x7, partner max 3 µM)
NO
